Tested on: 293T cells
Assay Protocol: Cell survival rate determination (CCK-8)
Type: cell-based
Test Parameters: difference of survival rates; comparator YK-308
We label by threshold. Values of cell survival rate higher than YK-308 strictly beneath 5% are fulfilled. Values of 5% and up are not fulfilled.

In [3]: df
Out[3]:
                           molecular_string    group_label
0  CCCCCCCCC(CCCCCCCC)COC(=O)CCCCCN(CCCCCC(=O)OCC(CCCCCCCC)CCCCCCCC)C[C@H](O)CN(CC)CCO  not fulfilled
1  CCCCCCCCC(CCCCCCCC)OC(=O)CCCCCN(CCCCCC(=O)OC(CCCCCCCC)CCCCCCCC)C[C@H](O)CN(CCO)CCO      fulfilled
2  CCCCCCCCC(CCCCCCCC)COC(=O)CCCCCN(CCCCCC(=O)OCC(CCCCCCCC)CCCCCCCC)C[C@H](O)CN(C)CCO  not fulfilled
3  CCCCCCCCCCCOC(=O)CCCCCN(CCCC(=O)OCCCC(CCCCCCCCCC)CCCCCCCCCC)C[C@H](O)CN(CC)CCO  not fulfilled
4  CCCCCCC(CCCCCC)CCOC(=O)CCCCCCN(CCCCCCC(=O)OCCC(CCCCCC)CCCCCC)C[C@H](O)CN(CCO)CCO      fulfilled
